target: Voltage-gated inwardly rectifying potassium channel KCNH2 (Homo sapiens); test: Inhibition of human ERG expressed in CHO cells by Qpatch assay
Sequence (Q12809 whole entry): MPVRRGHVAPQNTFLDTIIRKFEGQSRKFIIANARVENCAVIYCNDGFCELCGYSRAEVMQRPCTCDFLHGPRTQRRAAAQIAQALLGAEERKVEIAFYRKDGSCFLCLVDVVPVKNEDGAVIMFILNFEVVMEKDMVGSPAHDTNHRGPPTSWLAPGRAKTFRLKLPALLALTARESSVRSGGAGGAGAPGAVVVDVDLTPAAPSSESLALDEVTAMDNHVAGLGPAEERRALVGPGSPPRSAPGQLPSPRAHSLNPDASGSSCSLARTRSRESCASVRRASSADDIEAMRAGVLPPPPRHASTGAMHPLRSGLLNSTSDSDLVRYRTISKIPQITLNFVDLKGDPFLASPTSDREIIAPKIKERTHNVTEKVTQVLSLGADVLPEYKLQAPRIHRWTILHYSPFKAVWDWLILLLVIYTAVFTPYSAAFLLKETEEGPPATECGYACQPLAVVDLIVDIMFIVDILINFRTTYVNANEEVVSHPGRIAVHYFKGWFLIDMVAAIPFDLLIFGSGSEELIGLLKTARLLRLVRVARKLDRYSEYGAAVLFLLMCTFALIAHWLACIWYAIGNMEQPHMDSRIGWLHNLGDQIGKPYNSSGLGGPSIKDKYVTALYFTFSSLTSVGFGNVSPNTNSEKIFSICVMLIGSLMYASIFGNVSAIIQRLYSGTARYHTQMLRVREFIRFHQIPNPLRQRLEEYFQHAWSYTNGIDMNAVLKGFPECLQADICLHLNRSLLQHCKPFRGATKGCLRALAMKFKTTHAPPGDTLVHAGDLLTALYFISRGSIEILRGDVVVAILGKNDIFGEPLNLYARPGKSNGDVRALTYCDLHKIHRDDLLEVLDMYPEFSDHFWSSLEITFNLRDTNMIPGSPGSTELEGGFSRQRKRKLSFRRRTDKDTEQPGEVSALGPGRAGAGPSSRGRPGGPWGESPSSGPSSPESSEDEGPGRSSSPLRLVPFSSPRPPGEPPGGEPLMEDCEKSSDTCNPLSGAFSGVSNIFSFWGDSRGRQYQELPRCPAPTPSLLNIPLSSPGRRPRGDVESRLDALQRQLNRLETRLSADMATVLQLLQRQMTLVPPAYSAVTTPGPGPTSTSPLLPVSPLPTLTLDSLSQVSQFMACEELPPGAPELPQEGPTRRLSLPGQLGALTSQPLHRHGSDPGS
experimentalReadout: IC50 (µM)
Use µM as the unit, but write only the number.

[[record]]
smilescode = "N#Cc1ccc(S(=O)(=O)N2C[C@H](S(=O)(=O)c3ccc(Cl)cn3)[C@@](O)(CN)C2)c(Cl)c1"
experimentalreadout = "IC50"
recordedmeasurement = 8


Alright, here's another compound for you.
Input: Find the recorded IC50 belonging to N#Cc1ccc(S(=O)(=O)N2C[C@H](S(=O)(=O)c3ccc(Cl)cn3)[C@](O)(CN)C2)c(Cl)c1 and report it.
Output: 8

###

assay: Oral bioavailability in Sprague-Dawley rat at 2 mg/kg by LC/MS/MS analysis; type: ADME, organism-based; conditions: in vivo
bioavailability listing for selected compounds.
Use % as the unit, but write only the number.

These solved cases illustrate the format of a correct answer.
[[record]]
compound = "N#Cc1ccc(S(=N)(=O)N2C[C@H](S(=O)(=O)c3ccc(Cl)cc3)[C@](O)(CO)C2)c(Cl)c1 (some centres undefined)"
experimentalreadout = "bioavailability"
recordedmeasurement = 80

[[record]]
compound = "N#Cc1ccc(S(=O)(=O)N2C[C@H](S(=O)(=O)c3ccc(Cl)cn3)[C@@](O)(CN)C2)c(Cl)c1"
experimentalreadout = "bioavailability"
recordedmeasurement = 56

[[record]]
compound = "N#Cc1ccc(S(=O)(=O)N2C[C@H](S(=O)(=O)c3ccc(Cl)cn3)[C@](O)(CO)C2)c(Cl)c1"
experimentalreadout = "bioavailability"
recordedmeasurement = 62


Alright, here's another compound for you.
Input: Find the recorded bioavailability belonging to N#Cc1ccc(S(=O)(=O)N2C[C@H](S(=N)(=O)c3ccc(Cl)cc3)[C@](O)(CO)C2)c(Cl)c1 (some centres undefined) and report it.
Output: 38

Measured values drawn from ChEMBL document CHEMBL4382258 for this set.
